test system: MCF7; assay: Antiproliferative activity against human MCF7 cells assessed as reduction in cell viability incubated for 3 days by MTT assay; type: functional, cell-based; details: MCF7, 72 h
experimental_readout: IC50 (nM)

compound	units_of_measure	IC50
C[C@@H]1COCCN1c1cc(C2(S(C)(=O)=O)CC2)nc(-c2cccc3[nH]ccc23)n1	nM	2310
C[C@@H]1COCCN1c1nc(-c2cccc3[nH]ccc23)nc2c1CN(C(=O)c1ccc3c(c1)OCO3)C2(C)C	nM	730

a: C[C@@H]1COCCN1c1nc(-c2cccc3[nH]ccc23)nc2c1CN(C(=O)c1cccc(S(C)(=O)=O)c1)C2(C)C
b: O=C(c1cc(Cc2n[nH]c(=O)c3ccccc23)ccc1F)N1CCN(C(=O)C2CC2)CC1 [OLAPARIB]
Exercise: Please indicate which item has the smaller measured IC50: a versus b To answer, give the label that identifies your chosen option.
Solution: a

---

assay: Cmax in Sprague-Dawley rat at 5 mg/kg, po and measured upto 24 hrs by LC-MS analysis; type: ADME, organism-based; parameters: time < 24 hrs, dose 5 mg/kg, route po; conditions: in vivo
experimental_readout: Cmax (ng/mL)

A selection of reference data follows.
mol	units_of_measure	Cmax
COc1ccc(C(=O)N2Cc3c(N4CCOC[C@H]4C)nc(-c4cccc5[nH]ccc45)nc3C2(C)C)cc1	ng/mL	83.1
C[C@@H]1COCCN1c1nc(-c2cccc3[nH]ccc23)nc2c1CN(C(=O)c1ccc(S(C)(=O)=O)cc1)C2(C)C	ng/mL	24.1
C[C@@H]1COCCN1c1nc(-c2cccc3[nH]ccc23)nc2c1CN(C(=O)c1ccc3c(c1)OCO3)C2(C)C	ng/mL	1290

a: COc1cccc(C(=O)N2Cc3c(N4CCOC[C@H]4C)nc(-c4cccc5[nH]ccc45)nc3C2(C)C)c1
b: C[C@@H]1COCCN1c1nc(-c2cccc3[nH]ccc23)nc2c1CN(C(=O)c1cccc(S(C)(=O)=O)c1)C2(C)C
Exercise: Please indicate which item has the smaller measured Cmax: a versus b To answer, give the label that identifies your chosen option.
Solution: a

---

assay: in vitro; details: human, liver microsomes
experimental_readout: microsomal CLint at 1 h, 1 µM (µL/min/mg)

A selection of reference data follows.
mol	microsomal CLint at 1 h, 1 µM / µL/min/mg
CC(=O)N1CCc2c(N3CCOC[C@H]3C)nc(-c3cccc4[nH]ccc34)nc2C1(C)C	123
C[C@@H]1COCCN1c1nc(-c2cccc3[nH]ccc23)nc2c1CN(C(=O)c1cccc(S(C)(=O)=O)c1)C2(C)C	407
CC(C)C(=O)N1CCc2c(N3CCOC[C@H]3C)nc(-c3cccc4[nH]ccc34)nc2C1(C)C	493
CCC(=O)N1CCc2c(N3CCOC[C@H]3C)nc(-c3cccc4[nH]ccc34)nc2C1(C)C	207
C[C@@H]1COCCN1c1nc(-c2cccc3[nH]ccc23)nc2c1CCN(C(=O)c1cccc(F)c1)C2(C)C	179

P: COc1ccc(C(=O)N2Cc3c(N4CCOC[C@H]4C)nc(-c4cccc5[nH]ccc45)nc3C2(C)C)cc1
Q: COc1cccc(C(=O)N2Cc3c(N4CCOC[C@H]4C)nc(-c4cccc5[nH]ccc45)nc3C2(C)C)c1
R: CC(=O)c1ccc(C(=O)N2Cc3c(N4CCOC[C@H]4C)nc(-c4cccc5[nH]ccc45)nc3C2(C)C)cc1
Exercise: // smallest microsomal CLint at 1 h, 1 µM at index 0, largest at the end Field: ranking. Enter the labels in the order requested.
Solution: Q, P, R
(Q: 51.6 µL/min/mg, P: 147 µL/min/mg, R: 281 µL/min/mg)
